assay: NCI Yeast Anticancer Drug Screen. Data for the mgt1 strain (AID 153); conditions: S. cerevisiae mgt1 mutant growth inhibition; at 3.7 µM; stronger effect = higher value
Compounds without any hit were thinned out: in the full panel of roughly 79,000, 15% have a hit.
Measurement Name: growth inhibition (%)
// note: answer is a bare numeric in %

These recorded examples may help you get a feel for the data.
Compound	Readout Number
COc1ccc(-c2cn(-c3ccc(I)cc3)c3ncnc(N)c23)cc1	-8
CC(Br)C(=O)c1ccc2cc(Br)c3ccccc3c2c1 (stereo not drawn)	-1
COc1ccc(C2c3cc4c(cc3OC(C)(O)C2C)OCO4)c(OC)c1 (stereo not drawn)	-6
COC1=CC(=O)C(C2(OC(C)C)OC(=O)C(Cl)=C2Cl)=CC1=O (stereo not drawn)	17
c1ccc(-c2ccnc3c2ccc2c(-c4ccccc4)ccnc23)cc1	-9

Query: Could you share which growth inhibition value was measured for COc1cc(C2SCC(=O)N2c2nnc(C(F)(F)F)s2)cc(OC)c1OC (stereo not drawn) ?
Reply: -2

Query: // query growth inhibition value for entry O=C(OCCN1CCCCCC1)C(c1ccsc1)C1CCCCC1 (stereo not drawn)
Reply: 21

Query: Can you look up the measured growth inhibition of CC(=O)N/N=C/C(C)(C)C(C)(C)/C=N/NC(C)=O for me?
Reply: -2

Query: What does the record list as growth inhibition for CCOc1ccc2c(c1)c(CC(=O)O)cn2C ?
Reply: -6

Query: Field request: growth inhibition | item: Nc1nc(-c2cccnc2)cc(-c2cc(-c3cccnc3)nc(N)n2)n1
Reply: 2

Query: Quick check: growth inhibition of Clc1ccccc1C1OC1c1ccccc1Cl (stereo not drawn) ?
Reply: -90

Query: Can you look up the measured growth inhibition of CC1OCC2OC(C)OC(C3C4=C(CC(C)(C)CC4=O)OC4=C3C(=O)CC(C)(C)C4)C2O1 (stereo not drawn) for me?
Reply: 2

Query: Record request: growth inhibition value, item CC[n+]1ccc2c(C)c3[nH]c4ccc(O)cc4c3c(C)c2c1
Reply: -14
